experiment: Volume of distribution at steady state in BALB/C mouse plasma at 2 mg/kg, iv; assay type: ADME, organism-based; conditions: read-out: Vdss
Attribute measured: Vd

Report measured Vd; entry is O=C(O)C1CN(Cc2ccc(OCc3ccc(Cl)c(Cl)c3)cc2)C1 1.9 L/kg

###

tested on: Brain; assay: Cmax in BALB/C mouse brain at 2 mg/kg, iv; assay type: ADME, organism-based; design: dose 2 mg/kg, route intravenous; details: in vivo
Attribute measured: Cmax (ng/mL)
Return type: number; implicit unit ng/mL.

// Input: O=C(O)C1CN(Cc2ccc(OCc3ccc(Cl)c(Cl)c3)cc2)C1 . Output its Cmax only. 133

###

assay: Cmax in BALB/C mouse brain at 2 mg/kg, po; type: ADME, organism-based; design: dose 2 mg/kg, route oral
Attribute measured: Cmax (ng/mL)
Express the result in ng/mL but write the number alone.

Tell me Cmax reported for O=C(O)C1CN(Cc2ccc(OCc3ccc(Cl)c(Cl)c3)cc2)C1 43

###

assay: Tmax in BALB/C mouse plasma at 2 mg/kg, po; format: ADME, organism-based
Attribute measured: Tmax (h)
Hi! Could you send only the number? It should be in h, unit omitted.

Report Tmax, nothing else, for this molecule: O=C(O)C1CN(Cc2ccc(OCc3ccc(Cl)c(Cl)c3)cc2)C1 2

###

test: Half life in Sprague-Dawley rat brain at 2 mg/kg, po; format: ADME, organism-based
Attribute measured: half-life
Note to self: number, then unit, no commentary.

Specify measured half-life for O=C(O)C1CN(Cc2ccc(OCc3ccc(Cl)c(Cl)c3)cc2)C1 . 15 h

###

assay: AUC in beagle dog plasma at 1 mg/kg, po; type: ADME, organism-based, Canis lupus familiaris
Attribute measured: AUC (ng·h/mL)
Dear colleague, please return just the value in ng·h/mL, with no unit written.

Specify measured AUC for O=C(O)C1CN(Cc2ccc(OCc3ccc(Cl)c(Cl)c3)cc2)C1 . 11000

###

assay: Half life in BALB/C mouse plasma at 2 mg/kg, po; type: ADME, organism-based
Attribute measured: half-life (min)
The response must be a number in min with no trailing unit.

Give recorded half-life. O=C(O)C1CN(Cc2ccc(OCc3ccc(Cl)c(Cl)c3)cc2)C1 444

###

test: Oral bioavailability in beagle dog plasma at 1 mg/kg; format: ADME, organism-based, Canis lupus familiaris
Attribute measured: bioavailability (%)
Give your result in % as a bare value.

Hello, please tell me recorded bioavailability for this one: O=C(O)C1CN(Cc2ccc(OCc3ccc(Cl)c(Cl)c3)cc2)C1 92

###

experiment: Tmax in beagle dog plasma at 1 mg/kg, po; format: ADME, organism-based, Canis lupus familiaris
Attribute measured: Tmax (h)
Number in h, nothing else.

Dear colleague, please send me the reported Tmax for O=C(O)C1CN(Cc2ccc(OCc3ccc(Cl)c(Cl)c3)cc2)C1 when you can. 1.5

###

experiment: Plasma concentration in Sprague-Dawley rat at 10 mg/kg, iv administered for 30 mins; type: ADME, organism-based
Attribute measured: concentration at 0.5 h (ng/mL)
Answer with a number only, understood to be in ng/mL.

Identify the reported concentration at 0.5 h for the following entry. O=C(O)C1CN(Cc2ccc(OCc3ccc(Cl)c(Cl)c3)cc2)C1 8660

###

test: Half life in beagle dog plasma at 1 mg/kg, po; format: ADME, organism-based, Canis lupus familiaris
Attribute measured: half-life (h)
All answers are understood in h, so give the number only.

Tell me its half-life given O=C(O)C1CN(Cc2ccc(OCc3ccc(Cl)c(Cl)c3)cc2)C1 as the entry. 10
